- Target Or System: Rhesus PDE2A3 (Macaca mulatta, UniProt B3VTJ2)
- Construct: made in house; host or cells: AD293 cells, transient transfection; supernatant of sonicated lysate
- Sequence (B3VTJ2 1-941): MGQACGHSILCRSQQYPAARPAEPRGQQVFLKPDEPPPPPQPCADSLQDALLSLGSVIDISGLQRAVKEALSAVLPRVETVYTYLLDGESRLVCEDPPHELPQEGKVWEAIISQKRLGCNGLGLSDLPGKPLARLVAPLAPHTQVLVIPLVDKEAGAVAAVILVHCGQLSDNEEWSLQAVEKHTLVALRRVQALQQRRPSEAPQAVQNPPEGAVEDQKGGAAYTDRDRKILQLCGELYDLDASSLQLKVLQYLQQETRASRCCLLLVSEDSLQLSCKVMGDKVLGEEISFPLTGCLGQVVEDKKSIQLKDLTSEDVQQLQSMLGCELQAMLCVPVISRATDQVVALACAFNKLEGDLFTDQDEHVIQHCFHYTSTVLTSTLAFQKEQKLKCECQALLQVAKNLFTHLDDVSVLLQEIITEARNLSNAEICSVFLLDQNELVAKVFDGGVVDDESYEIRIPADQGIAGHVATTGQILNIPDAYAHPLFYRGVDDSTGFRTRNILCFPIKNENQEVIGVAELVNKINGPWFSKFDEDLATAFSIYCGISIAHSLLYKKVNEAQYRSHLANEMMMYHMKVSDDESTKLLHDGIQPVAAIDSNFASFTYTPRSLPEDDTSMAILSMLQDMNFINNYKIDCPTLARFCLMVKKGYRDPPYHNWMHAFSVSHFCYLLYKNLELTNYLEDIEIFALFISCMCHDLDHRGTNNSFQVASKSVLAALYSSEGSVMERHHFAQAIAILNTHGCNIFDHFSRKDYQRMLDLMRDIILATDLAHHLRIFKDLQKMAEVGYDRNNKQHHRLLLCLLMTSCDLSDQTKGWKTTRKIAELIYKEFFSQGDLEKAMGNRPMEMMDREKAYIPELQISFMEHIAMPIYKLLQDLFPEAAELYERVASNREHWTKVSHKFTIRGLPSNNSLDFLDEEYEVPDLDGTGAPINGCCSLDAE
- Protocol Notes: PDE2 fluorescence polarization (IMAP FP) inhibition assay, rhesus PDE2A3
- Format: biochemical, rhesus macaque
- Measurement Parameters: Lab A; read-out: Rhesus PDE2 Ki (nM) Lab A
So basically every entry gets a class from its Ki, ranges being Low: < 7 nM; Mid: ≥ 7 nM and < 100 nM; High: ≥ 100 nM

Ask: Determine which band this compound sits in: CCOCCc1nc2c(c(C)nn2C(C)c2ccc(C(F)(F)F)cc2)c(=O)[nH]1 (stereo not drawn)
Result: High

Ask: Determine which band this compound sits in: Cc1nn(C(C)c2ccc(C(F)(F)F)cc2)c2nc(-c3ccccn3)[nH]c(=O)c12 (stereo not drawn)
Result: Mid

Ask: Kindly identify the class of Cc1nc2c(c(C)nn2C(C)c2ccc(C(F)(F)F)cc2)c(=O)[nH]1 (single isomer, unassigned) [Example 36] .
Result: High

Ask: Please classify: Cc1nc2c(c(CF)nn2C(C)c2ccc(C(F)(F)F)c(F)c2)c(=O)[nH]1 (stereo not drawn)
Result: Low

Ask: Please indicate the class for Cc1nc2c(c(CO)nn2C(c2ccc(C(F)(F)F)cc2)C(F)(F)F)c(=O)[nH]1 (stereo not drawn) based on its Ki.
Result: Low

Ask: Just checking, what class would you give COc1cccc(-c2nc3c(c(C)nn3C(C)c3ccc(C(F)(F)F)cc3)c(=O)[nH]2)c1 (stereo not drawn) here?
Result: Mid

Ask: Just checking, what class would you give Cc1nc2c(c(CF)nn2C(C)c2ccc(C(C)(C)C)cc2)c(=O)[nH]1 (single isomer, unassigned) [Example 214] here?
Result: High

Ask: Place this compound in its band: Cc1nn(C(C)c2ccc(C(F)(F)F)cc2)c2nc(C3CCC3)[nH]c(=O)c12 (stereo not drawn)
Result: High

Ask: Sort into band: CCc1nc2c(c(C)nn2C(C)c2ccc(C(F)(F)F)cc2)c(=O)[nH]1 (stereo not drawn)
Result: Mid

Ask: Category of Cc1nn(C(C)c2ccc(C(F)(F)F)cc2)c2nc(C3CCOC3)[nH]c(=O)c12 (stereo not drawn) , please.
Result: High

Ask: Any idea which band Cc1nc2c(c(CF)nn2C(C)c2ccc(C(C)(C)C)cc2)c(=O)[nH]1 (single isomer, unassigned) [Example 215] is in?
Result: Low

Ask: Form: Item = Cc1nc2c(c(CO)nn2C(C)c2ccc(C(F)(F)F)cc2)c(=O)[nH]1 (single isomer, unassigned) [Example 26] ; Class = ?
Result: High

Ask: Classify this compound: Cc1nc2c(c(C(C)O)nn2C(C)c2ccc(C(F)(F)F)cc2)c(=O)[nH]1 (stereo not drawn)
Result: Mid

Ask: Consider Cc1nc2c(c(CO)nn2C(C)c2ccc(C(F)(F)F)c(F)c2)c(=O)[nH]1 (stereo not drawn) [Example 1] . To which Ki class does it belong?
Result: Low

Ask: Just checking, what class would you give Cc1nn(C(C)c2ccc(C(F)(F)F)cc2)c2nc(Cc3cccc(O)c3)[nH]c(=O)c12 (stereo not drawn) here?
Result: Low

Ask: Lab log: CCCc1nc2c(c(C)nn2C(C)c2ccc(C(F)(F)F)cc2)c(=O)[nH]1 (stereo not drawn) — assign Ki category
Result: Mid

Ask: Which class holds Cc1nc2c(c(CO)nn2C(C)c2ccc(C(F)(F)F)cc2)c(=O)[nH]1 (stereo not drawn) [Example 7] ?
Result: Mid
